# TARGET DESC: GABA B receptor (Rattus norvegicus, UniProt O88871+Q9Z0U4)
# Sequence (Q9Z0U4 whole entry): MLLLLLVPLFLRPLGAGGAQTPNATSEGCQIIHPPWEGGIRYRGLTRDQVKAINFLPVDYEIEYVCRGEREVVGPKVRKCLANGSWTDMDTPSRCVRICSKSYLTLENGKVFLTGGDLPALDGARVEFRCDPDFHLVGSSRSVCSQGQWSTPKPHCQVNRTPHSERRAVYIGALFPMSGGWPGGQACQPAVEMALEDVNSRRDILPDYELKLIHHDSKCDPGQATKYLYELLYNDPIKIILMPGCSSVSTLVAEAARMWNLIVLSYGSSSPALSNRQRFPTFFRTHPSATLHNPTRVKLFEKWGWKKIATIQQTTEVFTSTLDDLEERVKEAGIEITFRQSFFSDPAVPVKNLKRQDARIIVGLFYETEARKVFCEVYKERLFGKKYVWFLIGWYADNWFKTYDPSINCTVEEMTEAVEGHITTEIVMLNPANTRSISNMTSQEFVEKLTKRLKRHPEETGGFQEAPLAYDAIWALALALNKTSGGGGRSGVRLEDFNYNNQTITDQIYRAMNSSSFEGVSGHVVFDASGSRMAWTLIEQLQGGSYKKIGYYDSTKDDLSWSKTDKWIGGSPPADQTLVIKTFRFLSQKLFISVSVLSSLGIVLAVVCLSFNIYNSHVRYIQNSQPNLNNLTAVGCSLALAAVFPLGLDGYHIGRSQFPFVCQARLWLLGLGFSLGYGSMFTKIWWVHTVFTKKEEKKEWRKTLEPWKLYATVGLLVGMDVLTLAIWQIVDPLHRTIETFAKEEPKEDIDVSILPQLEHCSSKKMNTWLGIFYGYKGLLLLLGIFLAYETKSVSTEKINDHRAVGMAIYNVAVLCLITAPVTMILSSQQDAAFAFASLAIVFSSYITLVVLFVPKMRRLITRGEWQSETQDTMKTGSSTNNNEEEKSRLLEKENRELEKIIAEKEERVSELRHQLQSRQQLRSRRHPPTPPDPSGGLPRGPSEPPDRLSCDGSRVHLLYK
# Sequence (O88871 whole entry): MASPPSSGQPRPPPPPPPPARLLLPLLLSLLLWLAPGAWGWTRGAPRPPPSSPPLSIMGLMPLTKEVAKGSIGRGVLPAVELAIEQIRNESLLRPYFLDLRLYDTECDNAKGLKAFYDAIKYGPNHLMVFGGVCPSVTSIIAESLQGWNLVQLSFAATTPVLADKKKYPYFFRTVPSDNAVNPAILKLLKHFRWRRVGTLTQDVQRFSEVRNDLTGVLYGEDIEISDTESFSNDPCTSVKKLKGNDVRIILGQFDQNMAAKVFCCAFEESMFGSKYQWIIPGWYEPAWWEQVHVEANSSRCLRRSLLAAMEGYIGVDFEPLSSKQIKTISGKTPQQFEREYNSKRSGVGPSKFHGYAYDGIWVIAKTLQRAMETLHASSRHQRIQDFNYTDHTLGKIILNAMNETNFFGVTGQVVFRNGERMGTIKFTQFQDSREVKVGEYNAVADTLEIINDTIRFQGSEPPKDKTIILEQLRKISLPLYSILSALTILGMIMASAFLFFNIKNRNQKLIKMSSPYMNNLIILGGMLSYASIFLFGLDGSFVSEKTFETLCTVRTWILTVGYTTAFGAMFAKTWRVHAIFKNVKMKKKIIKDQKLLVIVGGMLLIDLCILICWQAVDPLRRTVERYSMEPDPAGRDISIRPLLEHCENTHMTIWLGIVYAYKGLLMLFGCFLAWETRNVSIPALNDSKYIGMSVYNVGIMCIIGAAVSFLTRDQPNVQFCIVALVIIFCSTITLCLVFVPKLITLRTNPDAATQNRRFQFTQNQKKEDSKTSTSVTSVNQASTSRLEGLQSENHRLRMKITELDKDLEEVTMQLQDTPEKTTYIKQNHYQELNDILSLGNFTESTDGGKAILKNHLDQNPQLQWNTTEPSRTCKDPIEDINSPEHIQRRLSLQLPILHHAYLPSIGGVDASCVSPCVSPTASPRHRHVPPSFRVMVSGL
# TEST DESCRIPTION: Binding affinity against Gamma-aminobutyric acid type B receptor in rat brain synaptosomes after 30 minutes
Listing of entries alongside the reported IC50.
Quick reminder: number only, in µM, skip the unit.

A selection of reference data follows.
1. CN(O)S(=O)(=O)CCCN; 0.04
2. NCCCS(=O)(=O)N(O)Cc1ccccc1; 0.04

I would be grateful if you could share the reported IC50 for `NCCCS(=O)(=O)NO` .
0.28

Look up IC50: NCCCS(=O)(=O)O [TRAMIPROSATE]
30

Quick check: IC50 of `NCCCS(=O)O` ?
0.06

Report IC50 for `NCCCS(=O)(=O)N(O)CC(=O)O` please.
0.08

====

# TARGET DESC: GABA-A receptor; anion channel
# TEST DESCRIPTION: Binding affinity against Gamma-aminobutyric acid A receptor in rat brain synaptosomes after 30 minutes
# Assay type: subcellular
MEASUREMENT TYPE: pIC50
Scale for pIC50: -log10 of concentration given in mol/L; no unit attached.

Provide value of pIC50 for this record tested with GABA-A receptor; anion channel: `NCCCS(=O)(=O)NO`
5.70

Lookup: pIC50 / GABA-A receptor; anion channel / `NCCCS(=O)(=O)N(O)Cc1ccccc1`
6.64

Request: pIC50, test system GABA-A receptor; anion channel, entry `NCCCS(=O)O`
6.33

Under GABA-A receptor; anion channel: pIC50 value of `NCCCS(=O)(=O)N(O)CC(=O)O` ?
6.21

Query pIC50 on GABA-A receptor; anion channel for NCCCS(=O)(=O)O [TRAMIPROSATE]
6.52

Identify the measured pIC50 of `CN(O)S(=O)(=O)CCCN` for GABA-A receptor; anion channel.
6.55

// provenance: ChEMBL document CHEMBL1152068
